// values below are reported Minimum Effective Concentration, Presence of Glycerin
tested on: Trypanosma brucei brucei; assay: Antitrypanosoma action in 24 h culture, minimum effective concentration, with or without glycerin; type: cell-based, Trypanosoma brucei brucei; conditions: 5×10^5/ml, 37° C., 24 hours, 5 mM of glycerin
Please give the number followed by its unit.

Please review the entries below; each comes with its answer.
Asked: What Minimum Effective Concentration, Presence of Glycerin appears in the records for this compound with Trypanosma brucei brucei? CCCCCCCCC(O)c1c(O)c(Cl)c(C)c(C=O)c1O (stereo not drawn) [196-9]
Given back: 0.8 µM

Asked: Queued: CCCCCCCCCC/C=C/c1c(O)cc(C)c(C=O)c1O [compound 198]
Given back: 50 µM

Asked: Queued: CCCCCCCCC(O)c1c(O)cc(C)c(C=O)c1O (stereo not drawn) [195-9]
Given back: 25 µM

Asked: Queued: CCCCCCCCCCCC(O)c1c(O)c(Cl)c(C)c(C=O)c1O (stereo not drawn) [196-12]
Given back: 1.5 µM

Asked: Queued: CCCCCCCCCC(O)c1c(O)c(Cl)c(C)c(C=O)c1O (stereo not drawn) [196-10]
Given back: 0.8 µM

---
Asked: What Minimum Effective Concentration, Presence of Glycerin appears in the records for this compound with Trypanosma brucei brucei? CCCCCCCCCCCC(O)c1c(O)cc(C)c(C=O)c1O (stereo not drawn) [195-12]
Given back: 25 µM

----------
Test system: Trypanosma brucei brucei
Experiment: Antitrypanosoma action in 24 h culture, minimum effective concentration, with or without glycerin
Format: cell-based, Trypanosoma brucei brucei
Settings: 5×10^5/ml, 37° C., 24 hours, 5 mM of glycerin
Protocol: With the use of a 96-well culture plate, each agent was adjusted to 10 mM with DMSO, and 5×10^5/ml of Trypanosma brucei brucei was added and cultured at 37° C. for 24 hours, and the minimum effective concentration was calculated. The above described culture was conducted with the addition of 5 mM of glycerin under the same conditions as described above and observed.
// values below are reported Minimum Effective Concentration, Presence of Glycerin
Please give the number followed by its unit.

Asked: Report Minimum Effective Concentration, Presence of Glycerin for CCCCCCCCCC(O)c1c(O)cc(C)c(C=O)c1O (stereo not drawn) please.
Given back: 25 µM

Asked: Queued: "CCCCCCC/C=C/c1c(O)c(Cl)c(C)c(C=O)c1O"
Given back: 0.8 µM

Asked: Queued: "CCCCCCCC/C=C/c1c(O)c(Cl)c(C)c(C=O)c1O"
Given back: 0.8 µM

Asked: Queued: C/C(=C\Cc1c(O)c(Cl)c(C)c(C=O)c1O)CC/C=C(\C)[C@@H]1CC(=O)C(C)(C)O1 [AF, ascofuranone, reference compound]
Given back: 0.2 µM

Asked: Queued: "CCCCCCCCCC/C=C/c1c(O)c(Cl)c(C)c(C=O)c1O"
Given back: 1.5 µM

---
Asked: Report Minimum Effective Concentration, Presence of Glycerin for CCCCCCCC/C=C/c1c(O)ccc(C=O)c1O [compound 197, 3-(1-Decenyl)-2,4-dihydroxybenzaldehyde] please.
Given back: 50 µM

----------
Measured endpoint: melting point

Please review the entries below; each comes with its answer.
Asked: Report melting point for "CCCCCCCCCC/C=C/c1c(O)cc(C)c(C=O)c1O" please.
Given back: 103 to 105 °C

Asked: Queued: "CCCCC/C=C/c1c(O)c(Cl)c(C)c(C=O)c1O"
Given back: 96 to 97 °C

Okay, next one:
Asked: Report melting point for "CCCCCCCCCC/C=C/c1c(O)c(Cl)cc(C=O)c1O" please.
Given back: 84 to 85 °C
